Each record here notes measured Kd.
# EXPERIMENTAL_TARGET: T1, PUF4 RNA-binding domain (Saccharomyces cerevisiae, UniProt P25339 537-888)
# T1 sequence: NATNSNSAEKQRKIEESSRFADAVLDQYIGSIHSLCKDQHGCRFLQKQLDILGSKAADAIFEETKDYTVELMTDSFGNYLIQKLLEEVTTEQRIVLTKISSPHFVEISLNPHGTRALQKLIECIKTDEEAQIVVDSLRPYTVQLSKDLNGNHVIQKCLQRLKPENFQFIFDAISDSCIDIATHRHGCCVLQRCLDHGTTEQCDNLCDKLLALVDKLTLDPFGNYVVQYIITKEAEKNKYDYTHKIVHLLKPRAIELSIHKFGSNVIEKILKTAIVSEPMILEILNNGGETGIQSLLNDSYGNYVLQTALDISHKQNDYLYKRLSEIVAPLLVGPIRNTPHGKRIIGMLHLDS
# TEST_NAME: Mg; RNA-MaP; 20 mM Na-HEPES pH 7.4, 30 mM KOAc, 0.75 mM MgCl2, 0.1% Tween-20, 5% glycerol, 0.1 mg/mL BSA, 2 mM DTT; 25 C; 0.0125-409.6 nM protein
# CONDITION_CONTEXT: tags: N-His6-TEV cleaved; C-SNAP kept, Cy3B-labelled; label: tethered on chip by stalled RNA polymerase

INSERT INTO results (binder, result) VALUES
  ('Ic_S2_P4E.1_K4.1_C4.1_H4.1_A4.1_[T5G]_[A6T]_[T7C]_F4.1_[T8C]_[A9C]_T4.1 (ssRNA) RNA: UUUGAUUAAUAUGAUAUCGUUCUUUCUUGUAGUCCCUUCUUUCUCGAUAUCAUAUUAAUCUUU', '473 nM'),
  ('Id_ii_S4_P5E.3_K5.2_C5.2_[T-1A]_H5.2_A5.1_F5.1_T5.2_[T11A]_[A12G] (ssRNA) RNA: UUUGACAACUGAUCGUUCUUUCUCAUAUAUUAUUAAGUUCUUUCUCGAUCAGUUGUCUUU', '> 2300 nM'),
  ('UCUCUUAUUGUAUAUUAACUCUCUU (ssRNA) [Id_ii_S1_P4E.2_K4.1_C4.2_[C-2A]_H4.1_A4.1_F4.1_T4.2_[G10A]_[T11C]]', '1.01 nM'),
  ('Ic_S4_P5E.1_K5.1_C5.1_H5.1_A5.1_[A7C]_F5.1_[T9G]_[A10G]_T5.1 (ssRNA) RNA: UUUGACAACUGAUCGUUCUUUCUUGUAUUCUGGUUCUUUCUCGAUCAGUUGUCUUU', '27.2 nM'),
  ('Ie_S2_P5E.1_K5.1_C5.1_H5.1_A5.1_[+7CTT]_F5.1_T5.1 (ssRNA) RNA: UUUGAUUAAUAUGAUAUCGUUCUUUCUUGUAUUACUUUUAUUCUUUCUCGAUAUCAUAUUAAUCUUU', '25.2 nM');

Field: next binder
For the binder shown here, UCUCUUUUUAUAUUAUUAGCUCUCUU (ssRNA) [Id_ii_S1_P5E.3_K5.2_C5.2_[C-2T]_H5.2_A5.1_F5.1_T5.2_[T11G]_[A12C]] , give the reported Kd.
160 nM

Hello, the source for this data is paper PMC9352680, in case you need it.
